# credit: patent US11401277B2

test: In vivo pharmacokinetic (PK) studies in rats
Design: species or system Sprague-Dawley (SD) rats
details: male, Sprague-Dawley, rat, plasma; 150 mg/kg, IV
reported.endpoint: AUC(0-inf) (µg·h/mL)
Your answer should be a plain number; it is taken to be in µg·h/mL.

Dear colleague, I am looking for the recorded AUC(0-inf) of the following compound: Cn1c(=O)ccc2ccc(F)c(OCCNC[C@H]3CN(c4cnc5c(n4)NC(=O)CO5)C(=O)O3)c21
172

* * *

test: In vivo pharmacokinetic (PK) studies in rats
Design: species or system Sprague-Dawley (SD) rats
details: male, Sprague-Dawley, rat, plasma; 150 mg/kg, IV
reported.endpoint: Tmax (h)
Only the number, expressed in h, is required.

Recorded Tmax of Cn1c(=O)ccc2ccc(F)c(OCCNC[C@H]3CN(c4cnc5c(n4)NC(=O)CO5)C(=O)O3)c21 [Compound 2] , please.
2
